Test system: PBMC from healthy, seropositive donors
Type: cell-based, human
Rule: Median SFC/10^6 PBMCs (IFN-g) under 200 gives Not met, otherwise Met.

>  <POLYMER_SEQUENCE>
FDLMVLRIDRGVAAAGYANT [BPSS1599_P5]

>  <LABEL_CLASS>
Not met

$$$$
>  <POLYMER_SEQUENCE>
ECTPGTAHYAWARNGSNVRY [BPSS1599_P29]

>  <LABEL_CLASS>
Not met

$$$$
>  <POLYMER_SEQUENCE>
AALPDALAFARACAMRFGRL [BPSS1599_P26]

>  <LABEL_CLASS>
Not met

$$$$
>  <POLYMER_SEQUENCE>
AWAERFDRYLDDADALVASA [BPSL2504_P8]

>  <LABEL_CLASS>
Met

$$$$
>  <POLYMER_SEQUENCE>
MSAAAQDRSIGAAQMTAAIA [BPSS1531_P20]

>  <LABEL_CLASS>
Met

$$$$
>  <POLYMER_SEQUENCE>
NQWTLEGVLYAK [BPSS1599_P43]

>  <LABEL_CLASS>
Not met

$$$$
>  <POLYMER_SEQUENCE>
DQYAITPAFTPLLNDLATTL [BPSL0999_P12]

>  <LABEL_CLASS>
Met

$$$$
>  <POLYMER_SEQUENCE>
ELERQGFQNFQPKRLDDLLP [BPSS1599_P16]

>  <LABEL_CLASS>
Not met

$$$$
>  <POLYMER_SEQUENCE>
CLALQAARTGGPEMAFGDVE [BPSS0530_P11]

>  <LABEL_CLASS>
Met

$$$$
>  <POLYMER_SEQUENCE>
FEVESTDPFWKQTLAGSAMA [BPSS0530_P42]

>  <LABEL_CLASS>
Met

$$$$
>  <POLYMER_SEQUENCE>
RVEVEVVGTQEVQKTTVPAQ [BPSL2522_P23]

>  <LABEL_CLASS>
Met

$$$$
>  <POLYMER_SEQUENCE>
AGTVMNVGNQVSQAAGGIVV [BPSS1532_P54]

>  <LABEL_CLASS>
Not met

$$$$
>  <POLYMER_SEQUENCE>
DNATEAGRAQNRRVEIYLRA [BPSL0999_P20]

>  <LABEL_CLASS>
Met

$$$$
>  <POLYMER_SEQUENCE>
WSDGMLIETQHFQQLERHLA [BPSS0530_P2]

>  <LABEL_CLASS>
Met

$$$$
>  <POLYMER_SEQUENCE>
APGGWRLERYECTPGTAHYA [BPSS1599_P28]

>  <LABEL_CLASS>
Not met

$$$$
>  <POLYMER_SEQUENCE>
WARNGSNVRYLLVVEPGATL [BPSS1599_P30]

>  <LABEL_CLASS>
Not met

$$$$
>  <POLYMER_SEQUENCE>
TKLGAVEQIQKLVDLQLPGA [BPSS0530_P38]

>  <LABEL_CLASS>
Met

$$$$
>  <POLYMER_SEQUENCE>
GALVGGVTGYNWQAIKNKLA [BPSL0999_P7]

>  <LABEL_CLASS>
Met

$$$$
>  <POLYMER_SEQUENCE>
SLSRRNELRAEAVELAKKLK [BPSS1599_P3]

>  <LABEL_CLASS>
Not met

$$$$
>  <POLYMER_SEQUENCE>
RRGGRPRTERWWALRPVERR [BPSS1599_P18]

>  <LABEL_CLASS>
Not met

$$$$
>  <POLYMER_SEQUENCE>
LRIVGDFPDLRFEAWGLRDGKVA [BPSS0530_P44]

>  <LABEL_CLASS>
Met

$$$$
>  <POLYMER_SEQUENCE>
EAEEREAALERVRAELAARQ [BPSS1599_P23]

>  <LABEL_CLASS>
Not met

$$$$
>  <POLYMER_SEQUENCE>
NSYTSQIAQLNEQIASASSQ [BPSL0280_P18]

>  <LABEL_CLASS>
Met

$$$$
>  <POLYMER_SEQUENCE>
CIGKIVGWVITAVSFAAAAF [BPSS1532_P35]

>  <LABEL_CLASS>
Not met

$$$$
>  <POLYMER_SEQUENCE>
RDGFAPGHLSLGAMVSRAIA [BPSS1599_P7]

>  <LABEL_CLASS>
Not met

$$$$
>  <POLYMER_SEQUENCE>
IFAFSAAMPAEKLRQLLPQQ [BPSS0530_P36]

>  <LABEL_CLASS>
Met

$$$$
>  <POLYMER_SEQUENCE>
DLDQDGLGLGRLGLRHARGV [BPSS0530_P6]

>  <LABEL_CLASS>
Met

$$$$
